Biological target: 5-hydroxytryptamine receptor 2C (Homo sapiens, UniProt P28335)
Sequence (P28335 whole entry): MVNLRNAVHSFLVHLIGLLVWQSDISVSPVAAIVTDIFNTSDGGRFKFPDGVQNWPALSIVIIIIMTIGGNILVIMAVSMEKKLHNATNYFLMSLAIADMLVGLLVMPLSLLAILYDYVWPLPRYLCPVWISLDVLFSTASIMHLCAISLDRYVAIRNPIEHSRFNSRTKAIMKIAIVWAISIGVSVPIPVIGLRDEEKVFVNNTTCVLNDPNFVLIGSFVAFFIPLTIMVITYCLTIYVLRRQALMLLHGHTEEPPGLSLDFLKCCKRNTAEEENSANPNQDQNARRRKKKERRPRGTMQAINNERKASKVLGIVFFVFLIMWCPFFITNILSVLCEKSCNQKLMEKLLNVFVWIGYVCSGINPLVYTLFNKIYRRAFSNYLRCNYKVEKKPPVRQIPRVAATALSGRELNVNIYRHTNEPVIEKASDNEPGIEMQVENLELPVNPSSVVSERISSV
Assay: Effective concentration towards 5-hydroxytryptamine 2C receptors transfected in HEK293 cells was determined by measuring [3H]phosphoinositol release
pEC50: −log10 of the molar value.
The threshold is inclusive: pEC50 of exactly 8 counts as Condition met; values below receive Condition not met.

>  <compound>
COc1cc2c(cc1Br)C(C)CNCC2 (stereo not drawn)

>  <studySystem>
5-hydroxytryptamine receptor 2C (Homo sapiens, UniProt P28335)

>  <discreteLabel>
Condition met

$$$$
>  <compound>
CC1CNCCc2cc(Cl)ccc21 (stereo not drawn)

>  <studySystem>
5-hydroxytryptamine receptor 2C (Homo sapiens, UniProt P28335)

>  <discreteLabel>
Condition not met

$$$$
>  <compound>
COc1cc2c(cc1I)C(C)CNCC2 (stereo not drawn)

>  <studySystem>
5-hydroxytryptamine receptor 2C (Homo sapiens, UniProt P28335)

>  <discreteLabel>
Condition met

$$$$
>  <compound>
COc1ccc2c(c1)CCNCC2C (stereo not drawn)

>  <studySystem>
5-hydroxytryptamine receptor 2C (Homo sapiens, UniProt P28335)

>  <discreteLabel>
Condition not met

$$$$
>  <compound>
COc1cc2c(cc1C(F)(F)F)C(C)CNCC2 (stereo not drawn)

>  <studySystem>
5-hydroxytryptamine receptor 2C (Homo sapiens, UniProt P28335)

>  <discreteLabel>
Condition met

$$$$
>  <compound>
CC1CNCCc2cccc(Cl)c21 (stereo not drawn)

>  <studySystem>
5-hydroxytryptamine receptor 2C (Homo sapiens, UniProt P28335)

>  <discreteLabel>
Condition not met

$$$$
>  <compound>
CC1CNCCc2cc(Cl)c(Cl)cc21 (stereo not drawn)

>  <studySystem>
5-hydroxytryptamine receptor 2C (Homo sapiens, UniProt P28335)

>  <discreteLabel>
Condition met

$$$$

* * *

Biological target: UniProt:P28335
Sequence (whole entry): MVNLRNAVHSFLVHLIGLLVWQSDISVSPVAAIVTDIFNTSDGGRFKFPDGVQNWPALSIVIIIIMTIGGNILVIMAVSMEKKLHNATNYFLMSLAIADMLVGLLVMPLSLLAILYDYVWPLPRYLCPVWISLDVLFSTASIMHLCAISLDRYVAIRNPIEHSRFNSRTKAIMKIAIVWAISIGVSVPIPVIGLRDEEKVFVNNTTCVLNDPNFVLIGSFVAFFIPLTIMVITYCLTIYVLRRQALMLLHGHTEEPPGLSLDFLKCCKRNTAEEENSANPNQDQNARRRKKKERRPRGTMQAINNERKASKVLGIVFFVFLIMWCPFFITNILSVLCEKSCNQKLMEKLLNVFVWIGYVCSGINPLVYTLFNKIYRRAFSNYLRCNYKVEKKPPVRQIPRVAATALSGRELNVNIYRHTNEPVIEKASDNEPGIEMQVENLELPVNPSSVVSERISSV
Experiment: Percentage maximum response relative to serotonin towards 5-hydroxytryptamine 2C receptor in HEK293 cells
Type: functional, cell-based

>  <compound>
C[C@@H]1CNCCc2ccc(Cl)cc21

>  <unitOfMeasure>
%

>  <Maximum response>
100

$$$$
>  <compound>
Clc1ccc2c(c1)CCNCC2

>  <unitOfMeasure>
%

>  <Maximum response>
85

$$$$
>  <compound>
C[C@H]1CNCCc2ccc(Cl)cc21

>  <unitOfMeasure>
%

>  <Maximum response>
100

$$$$
>  <compound>
C[C@H]1CNCCc2ccc(Cl)c(Cl)c21

>  <unitOfMeasure>
%

>  <Maximum response>
85

$$$$
>  <compound>
C[C@@H]1CNCCc2ccc(Cl)c(Cl)c21

>  <unitOfMeasure>
%

>  <Maximum response>
90

$$$$

Cited source for all entries: ChEMBL document CHEMBL1142018
